The measurements presented in this section are drawn from patent US5965524A.

System: Herpes Simplex Virus 2 (HSV-2)
EXPERIMENT_DESCRIPTION: Inhibition of HSV-2 growth in cultured cells
Format: cell-based
COND: lowest concentration at which 50% of the viruses are rendered noninfective
OBSERVATION_TYPE: HSV-2 LD50

molecule="CCCCCCCCCC(=O)N[C@@H](CC(C)C)C(=O)N[C@H](CCC(=O)OCc1ccccc1)C(=O)Nc1ccc2c(c1)OCCOCCOCCOCCO2 [Compound 12]" observation_type="HSV-2 LD50" result="> 50 µg/mL"
molecule="CCCCCCCCCCCCCCC(CCC(=O)OCc1ccccc1)C(=O)Nc1ccc2c(c1)OCCOCCOCCOCCO2 (stereo not shown) [Compound 14]" observation_type="HSV-2 LD50" result="> 33 µg/mL"
molecule="Nc1nc2c(ncn2COCCO)c(=O)[nH]1 [Acyclovir, reference compound]" observation_type="HSV-2 LD50" result="0.6 to 1.5 µg/mL"
molecule="CCCCCCCCCCCCCCC(CCC(=O)O)C(=O)Nc1ccc2c(c1)OCCOCCOCCOCCO2 (stereo not shown) [Compound 15]" observation_type="HSV-2 LD50" result="11 µg/mL"
